The measured values listed here are drawn from PubChem BioAssay (NCI).

# Tested on: SF-268 CNS
# test-method-notes: NCI tumour cell line growth inhibition, 48 h
measurement-type: GI50

>>> assay_value("COc1ccc(/C=C/C(=O)c2c(O)c(C)c(O)c3c2OC2=CC(O)=C(C(C)=O)C(=O)[C@]23C)cc1")
"871 nM"

Item: O=C(c1ccc(Oc2ccccc2)cc1Cl)c1c[nH]c2ncnc(N[C@@H]3CC[C@@H](CO)OC3)c12 Test system: SF-268 CNS Read-out: GI50 Value: ? 1410 nM

// fetch SF-268 CNS GI50 for Cc1ccc(N(CC(=O)Nc2ccc(S(=O)(=O)NC3CCN(C)CC3)cc2)S(=O)(=O)c2ccc(Cl)cc2)cc1 2670 nM

API: value(readout=GI50, system=SF-268 CNS) for record CSc1ccc(C2=NN(c3ccccc3)C(c3ccc(-c4cc(Cl)c(Cl)cc4Cl)o3)C2)cc1 (centres undefined) 87100 nM

What reported GI50 corresponds to NCCCNc1nc2ccccc2c2c(=O)c3cccc(F)c3sc12 on SF-268 CNS? 1470 nM

Record lookup: for SF-268 CNS, what GI50 belongs to CC(=O)c1ccc(Nc2cc(-n3nnc4ccccc43)nc3ccccc23)cc1 ? 25100 nM

GET /values?readout=GI50&system=SF-268 CNS&item= COc1cc(Nc2cc(O)c3c(=O)cc(-c4ccccc4)oc3c2)cc(OC)c1 909 nM

Query for SF-268 CNS: what GI50 does the record show for Oc1ccc(OCCOc2ccc(O)cc2)cc1 ? 3940 nM

Form entry - test system: SF-268 CNS; read-out: GI50; molecule: C=C1C(O)C2C(=C(CC(C)C)C13CC3)C(=O)C(C)(C)C2O (centres undefined) > 100000 nM

====

# Test system: HOP-62 NSCLC
# test-method-notes: NCI tumour cell line growth inhibition, 48 h
Entries annotated with measured GI50

Study these solved cases before continuing.
>>> assay_value("C1C[OH+]CCNCC[OH+]CC[OH+]CCN1.O.[Cl-].[Pt+4]")
"> 100 µM"
>>> assay_value("O=C1NC(=O)/C(=C/c2ccc3ncccc3c2)S1")
"> 25 µM"
>>> assay_value("COc1cc(/C=C/[N+](=O)[O-])c([N+](=O)[O-])cc1OC")
"2.91 µM"
>>> assay_value("CCN(Cc1cc(F)cc(F)c1)c1ccc(CO)c(Cl)c1")
"2.67 µM"
>>> assay_value("COc1ccc(-c2cc(C(=O)N3N=C(c4ccc(N)cc4)CC3c3ccc(Cl)cc3)c3ccccc3n2)cc1 (stereo not drawn)")
"3.21 µM"

For the record C=C(C)[C@@H]1/C=C(/C(C)C)CC[C@@]2(C)OC2CC[C@H](C)CC1=O (stereo partly drawn) , what value of GI50 is listed for HOP-62 NSCLC? 30.3 µM

Look up GI50 with HOP-62 NSCLC for this molecule: O=C(CCCBr)Nc1ccccc1C#C/C=C\C#Cc1ccccc1C(F)(F)F 4.76 µM

Identify the measured GI50 of COC1=C(C)C(=O)N2[C@@H]1[C@H](c1ccccc1)OC21C=CC(=O)C=C1 for HOP-62 NSCLC. 10.8 µM

====

List of TGI values.
# System: OVCAR-3 ovarian
# test-method-notes: NCI tumour cell line growth inhibition, 48 h

# annotated cases, reported TGI shown
>>> assay_value("COc1ccc(-c2cc(C(=O)N3N=C(c4ccc(N)cc4)CC3c3ccc(Cl)cc3)c3ccccc3n2)cc1 (stereo unspecified)")
"8.55 µM"
>>> assay_value("CC[C@@]1(O)C(=O)OCc2c1cc1n(c2=O)Cc2c-1nc1ccccc1c2/C=N/NC(=O)C[N+](C)(C)C")
"> 100 µM"
>>> assay_value("CN(C)C1C(CO)OC(n2cnc3c(N)ncnc32)C1O (stereo unspecified)")
"> 100 µM"
>>> assay_value("Cn1c(=O)c2[nH]c(CCCCc3nc4ccccc4[nH]3)nc2n(C)c1=O")
"> 100 µM"
>>> assay_value("FC(F)(F)c1ccc2c(c1)nc(-c1ccccc1)n2CC1CCCN2CCCCC12 (stereo unspecified)")
"40.1 µM"

Entry under review: CSc1ccc(C2=NN(c3ccccc3)C(c3ccc(-c4cc(Cl)c(Cl)cc4Cl)o3)C2)cc1 (stereo unspecified) . Reported TGI? > 100 µM

Which TGI is listed for CC(C)(C)c1ccc2c(c1)OP1(Oc3cccc4cccnc34)(O2)Oc2ccc(C(C)(C)C)cc2O1 ? 6.44 µM

Could you tell me which TGI is on file for C(=N\c1cc2cc(Sc3ccccc3)ccc2[nH]1)/c1ccccc1 ? > 12.5 µM

State the recorded TGI for this entry: COC(=O)/C(C#N)=C1\CCC(OC)N1 (stereo unspecified) > 100 µM

Which TGI is listed for CCCCCCCCCCCC(=O)N(CCCCCCCCCCC(=O)O)CC(O)C(O)C(OC1OC(CO)C(O)C(O)C1O)C(O)CO (stereo unspecified) ? > 100 µM

For the compound C=CCN1C(=O)CNC1=S , what TGI is on record? > 100 µM

What value of TGI has been recorded for this entry: CCOc1ccccc1/C=C(/C#N)C(N)=O > 100 µM

====

# Tested on: SK-MEL-5 melanoma
# test-method-notes: NCI tumour cell line growth inhibition, 48 h
measurement-type: TGI (µM)
Write the value in µM as a bare number.

Look over these answered cases.
>>> assay_value("CN(c1ccc(Cl)c(Cl)c1)c1cnc2cc(N)cc(N)c2n1")
3.71
>>> assay_value("CC1=C(C)C(=O)C(C2=C(C3=CC(=O)C(C)=C(C)C3=O)C(=O)C(C)=C(C)C2=O)=CC1=O")
5.85
>>> assay_value("CC(=O)O[C@]1(C)CCC2C(C)C(=O)OC2C2C(C)[C@@H](O)CC21 (stereo partly specified)")
89.7
>>> assay_value("FC(F)(F)c1ccc2c(c1)nc(-c1ccccc1)n2CC1CCCN2CCCCC12 (stereo unspecified)")
28.1
>>> assay_value("CC(=O)c1ccc(Nc2cc(-n3nnc4ccccc43)nc3ccccc23)cc1")
75.4
>>> assay_value("COc1ccc(/C=C/C(=O)c2c(O)c(C)c(O)c3c2OC2=CC(O)=C(C(C)=O)C(=O)[C@]23C)cc1")
3.61

What reported TGI corresponds to O=S1(=O)OCCOS(=O)(=O)C1(I)I on SK-MEL-5 melanoma? 30

Entry C=C(C)[C@@H]1/C=C(/C(C)C)CC[C@@]2(C)OC2CC[C@H](C)CC1=O (stereo partly specified) , system SK-MEL-5 melanoma: what TGI was measured? 37.9

# returns recorded TGI (system: SK-MEL-5 melanoma) for NCCCNc1nc2ccccc2c2c(=O)c3cccc(F)c3sc12 3.08

====

# System: MDA-N
# test-method-notes: NCI tumour cell line growth inhibition, 48 h
measurement-type: TGI

>>> assay_value("C(=N\\c1cc2cc(Sc3ccccc3)ccc2[nH]1)/c1ccccc1")
"> 12.5 µM"

# evaluate next
Field request: TGI | item: O=C(O)C1(Nc2ccc(Cl)cc2)CCCC1 > 100 µM

====

# Test system: SW-620 colon
# test-method-notes: NCI tumour cell line growth inhibition, 48 h
# TGI listing for each entry below

Worked cases, answers included:
>>> assay_value("Nc1ccc(Sc2nnc(N)s2)cc1")
"> 100 µM"
>>> assay_value("CC(C)(C)OC(=O)NCC(=O)NC1CC=CCC1NC(=O)CNC(=O)OC(C)(C)C (stereo unspecified)")
"> 100 µM"
>>> assay_value("C(=N\\c1cc2cc(Sc3ccccc3)ccc2[nH]1)/c1ccccc1")
"> 12.5 µM"
>>> assay_value("COC1=CC(=O)c2c(c(-c3csc(C)n3)cn2C)C1=O")
"> 100 µM"
>>> assay_value("CC1(C)OC(C(C)(C)O)C(C(C)(C)O)O1 (stereo unspecified)")
"> 100 µM"

Reported TGI for COC(=O)/C(C#N)=C1\CCC(OC)N1 (stereo unspecified) : what is it? > 100 µM

Find the recorded TGI belonging to O=c1cn[nH]c2nc3ccccc3n12 and report it. > 100 µM

What TGI value was documented for this compound, CC(C)(C)OC(=O)C1=C(O)C(C(=O)OC(C)(C)C)C23CCCCC12C(C(=O)OC(C)(C)C)C(O)=C3C(=O)OC(C)(C)C (stereo unspecified) ? > 100 µM

Please look up its TGI: COc1ccc2nccc(/C=C/c3ccc(N(C)C)cc3)c2c1 > 10 µM

# query: TGI of entry COc1cc(/C=C/c2cc(/C=C/c3ccc(O)c(OC)c3)n(C(N)=O)n2)ccc1O 1.82 µM

# lookup: TGI of CO[C@H]1/C=C/[C@@](C)(O)/C=C/C(=O)O[C@H](C)[C@@H](C)CC/C=C/1C 35.7 µM

====

# Test system: KM12 colon
# test-method-notes: NCI tumour cell line growth inhibition, 48 h
TGI values, listed per item

Some solved cases for reference:
>>> assay_value("CN(C)CCNC(=O)c1cccc2nc3c(ccc4ccccc43)nc12")
"6.9 µM"
>>> assay_value("Cc1ccc(N(CC(=O)Nc2ccc(S(=O)(=O)NC3CCN(C)CC3)cc2)S(=O)(=O)c2ccc(Cl)cc2)cc1")
"8.25 µM"
>>> assay_value("[N-]=[N+]=CC(=O)OC1CCOCC1")
"> 100 µM"
>>> assay_value("O=C(Nc1ccn(C2CCC(CO)O2)c(=O)n1)c1ccccc1 (stereo unspecified)")
"> 100 µM"
>>> assay_value("O=C(O)Cc1cc(F)ccc1C(=O)O")
"> 100 µM"

Fill blank: measured TGI of the compound Cc1ccc(N=Nc2c(C)nn(-c3ccccc3)c2C)c(Br)c1 is ____. > 100 µM

Item CCOC(=O)c1ccc(N=C2S/C(=C\C(=S)Nc3ccccc3)N(c3ccccc3)C2=Nc2ccc(C(=O)OCC)cc2)cc1 has what recorded TGI? > 100 µM

Recorded TGI for C#CCn1c(=O)[nH]c(=O)c2cccnc21 , please? > 100 µM
